Molecular target: T1, murine GPC3-his protein (murine, UniProt Q8CFZ4 25-558, limits assumed)
T1 construct: Bought protein; also called mouse GPC3 protein; murine GPC3 protein; not shown: His tag
T1 sequence (Q8CFZ4 25-558 limits assumed): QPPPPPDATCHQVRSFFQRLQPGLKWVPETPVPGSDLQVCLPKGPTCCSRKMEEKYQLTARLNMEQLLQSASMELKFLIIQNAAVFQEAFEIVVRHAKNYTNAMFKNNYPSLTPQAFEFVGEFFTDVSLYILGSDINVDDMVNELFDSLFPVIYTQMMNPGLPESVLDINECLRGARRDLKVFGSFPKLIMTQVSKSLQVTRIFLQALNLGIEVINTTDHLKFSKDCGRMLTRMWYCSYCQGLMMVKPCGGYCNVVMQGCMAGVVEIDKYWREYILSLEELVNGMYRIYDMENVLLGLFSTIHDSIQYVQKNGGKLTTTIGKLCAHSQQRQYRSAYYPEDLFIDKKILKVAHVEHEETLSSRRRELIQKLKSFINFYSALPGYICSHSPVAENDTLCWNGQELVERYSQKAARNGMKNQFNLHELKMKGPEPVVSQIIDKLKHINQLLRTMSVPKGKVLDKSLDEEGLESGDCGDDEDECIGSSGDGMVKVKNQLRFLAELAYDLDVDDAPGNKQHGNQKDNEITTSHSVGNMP
Test: ELISA, murine GPC3-his coated; antibody 66.66 nM
endpoint: OD450 nm
Lab note: record the figure alone, no unit after it.

Past entries and their recorded results:
>>> reported_result("hAb001H1L1a (antibody, human IgG1, V domains shown, Humanized F2.169.2, H1+L1a) VH: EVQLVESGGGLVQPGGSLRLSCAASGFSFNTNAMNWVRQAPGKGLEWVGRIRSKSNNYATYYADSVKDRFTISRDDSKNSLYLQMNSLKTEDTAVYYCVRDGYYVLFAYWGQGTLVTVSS VL: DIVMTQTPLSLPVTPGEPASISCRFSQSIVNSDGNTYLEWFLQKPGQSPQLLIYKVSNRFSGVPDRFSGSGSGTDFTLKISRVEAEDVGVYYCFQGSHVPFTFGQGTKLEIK")
2.58
>>> reported_result("hAb001H1aL1 (antibody, human IgG1, V domains shown, Humanized F2.169.2, H1a+L1) VH: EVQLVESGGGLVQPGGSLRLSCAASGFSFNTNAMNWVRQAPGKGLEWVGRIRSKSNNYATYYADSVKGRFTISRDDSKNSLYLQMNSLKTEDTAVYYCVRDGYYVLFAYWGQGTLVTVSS VL: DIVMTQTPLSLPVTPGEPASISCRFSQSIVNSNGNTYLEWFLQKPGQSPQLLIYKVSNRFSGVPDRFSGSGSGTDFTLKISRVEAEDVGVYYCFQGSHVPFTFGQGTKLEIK")
2.68
>>> reported_result("hAb001H2L1a (antibody, human IgG1, V domains shown, Humanized F2.169.2, H2+L1a) VH: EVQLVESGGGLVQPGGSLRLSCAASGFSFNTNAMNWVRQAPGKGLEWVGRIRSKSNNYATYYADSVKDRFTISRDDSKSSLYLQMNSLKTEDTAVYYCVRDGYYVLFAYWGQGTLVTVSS VL: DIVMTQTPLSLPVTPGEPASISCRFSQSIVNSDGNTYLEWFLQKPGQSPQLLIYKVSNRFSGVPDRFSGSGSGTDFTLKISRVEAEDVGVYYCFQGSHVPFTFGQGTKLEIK")
2.48

Request the reported OD450 nm associated with hAb001H1L1 (antibody, human IgG1, V domains shown, Humanized F2.169.2, H1+L1) VH: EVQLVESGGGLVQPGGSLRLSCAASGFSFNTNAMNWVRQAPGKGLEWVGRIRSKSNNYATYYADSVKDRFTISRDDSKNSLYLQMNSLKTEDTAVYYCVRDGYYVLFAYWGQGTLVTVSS VL: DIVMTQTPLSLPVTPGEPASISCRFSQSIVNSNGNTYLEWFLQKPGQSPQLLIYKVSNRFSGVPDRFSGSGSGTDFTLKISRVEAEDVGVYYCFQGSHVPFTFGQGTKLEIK
2.64

Reported OD450 nm, binder hAb001H1aL1b (antibody, human IgG1, V domains shown, Humanized F2.169.2, H1a+L1b) VH: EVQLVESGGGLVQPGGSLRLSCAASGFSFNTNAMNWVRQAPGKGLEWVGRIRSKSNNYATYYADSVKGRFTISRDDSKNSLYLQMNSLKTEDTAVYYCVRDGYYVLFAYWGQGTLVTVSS VL: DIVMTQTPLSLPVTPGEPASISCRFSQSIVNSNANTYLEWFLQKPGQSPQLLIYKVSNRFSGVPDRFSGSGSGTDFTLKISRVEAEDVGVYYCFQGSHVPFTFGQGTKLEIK : ____
2.76
